System: HPDE
Assay: cells
Set-up: ATPlite luminescence viability of PDAC cell lines, 11-dose single-agent curves, 4-parameter fit
Settings: HPDE, 72 h, read-out: EC50 [nM]
Task for the reader: assign each of the following compounds its reported EC50.
# unit: nM | format: bare number

Lab note: measured EC50 of C[C@@H]1CN(C(=O)c2ccc(NC(=O)c3cc(O[C@H](C)c4c(Cl)ccc(F)c4Cl)c(N)nn3)cc2)C[C@H](C)N1 was 4130

Lab note: measured EC50 of O=C(c1ccc(F)c(F)c1Nc1ccc(I)cc1F)N1CC(O)([C@@H]2CCCCN2)C1 was 4490

Lab note: measured EC50 of COc1cc2ncnc(Nc3ccc(F)c(Cl)c3)c2cc1NC(=O)/C=C/CN1CCCCC1 was 46.5

Lab note: measured EC50 of Cc1cnc(Nc2ccc(OCCN3CCCC3)cc2)nc1Nc1cccc(S(=O)(=O)NC(C)(C)C)c1 was 1280

Lab note: measured EC50 of O=C(Cc1ccc(-c2ccc(OCCN3CCOCC3)cc2)cn1)NCc1ccccc1 was 39.9

Lab note: measured EC50 of Cc1ccc(C(=O)Nc2ccc(CN3CCN(C)CC3)c(C(F)(F)F)c2)cc1C#Cc1cnc2cccnn12 was 1930

Lab note: measured EC50 of Cc1nc(-c2cn3c(n2)-c2ccc(-c4cnn(C(C)(C)C(N)=O)c4)cc2OCC3)n(C(C)C)n1 was 826
